- test.system: recombinant human AMPK complex, containing α2β1γ2 (Homo sapiens, UniProt P54646+Q9Y478)
- Construct: hsAMPKα2-552-His, hsAMPKβ1-2-270 and hsAMPKγ-2-569 respectively; hsAMPKβ1-2-270; hsAMPKγ-2-569; His (C); made in house; host or cells: Spodoptera frugiperda Sf21 (baculovirus)
- Sequence (P54646 2-552): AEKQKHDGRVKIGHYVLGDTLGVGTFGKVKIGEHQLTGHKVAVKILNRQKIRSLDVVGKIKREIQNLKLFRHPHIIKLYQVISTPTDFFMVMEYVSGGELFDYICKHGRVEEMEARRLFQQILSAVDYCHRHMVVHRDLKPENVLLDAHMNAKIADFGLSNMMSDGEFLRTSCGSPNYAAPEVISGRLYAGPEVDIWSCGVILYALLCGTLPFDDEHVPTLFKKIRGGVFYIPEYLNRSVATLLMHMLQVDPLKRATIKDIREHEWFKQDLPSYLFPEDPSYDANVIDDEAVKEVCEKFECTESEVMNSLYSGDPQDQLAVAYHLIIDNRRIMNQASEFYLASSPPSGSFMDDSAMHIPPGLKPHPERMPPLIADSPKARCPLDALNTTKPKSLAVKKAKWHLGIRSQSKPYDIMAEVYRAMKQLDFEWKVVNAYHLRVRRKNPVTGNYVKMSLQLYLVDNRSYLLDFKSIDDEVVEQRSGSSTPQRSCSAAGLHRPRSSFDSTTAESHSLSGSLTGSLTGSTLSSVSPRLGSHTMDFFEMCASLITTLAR
- Sequence (Q9Y478 2-270): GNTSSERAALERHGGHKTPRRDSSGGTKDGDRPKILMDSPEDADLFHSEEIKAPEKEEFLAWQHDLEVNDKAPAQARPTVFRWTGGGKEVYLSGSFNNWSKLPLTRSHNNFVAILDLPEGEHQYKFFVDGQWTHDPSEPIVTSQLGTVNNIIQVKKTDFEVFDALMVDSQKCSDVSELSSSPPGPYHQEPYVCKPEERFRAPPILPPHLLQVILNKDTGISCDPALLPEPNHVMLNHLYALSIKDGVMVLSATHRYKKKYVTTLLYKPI
- Sequence (Q9UGJ0 2-569 partner limits assumed): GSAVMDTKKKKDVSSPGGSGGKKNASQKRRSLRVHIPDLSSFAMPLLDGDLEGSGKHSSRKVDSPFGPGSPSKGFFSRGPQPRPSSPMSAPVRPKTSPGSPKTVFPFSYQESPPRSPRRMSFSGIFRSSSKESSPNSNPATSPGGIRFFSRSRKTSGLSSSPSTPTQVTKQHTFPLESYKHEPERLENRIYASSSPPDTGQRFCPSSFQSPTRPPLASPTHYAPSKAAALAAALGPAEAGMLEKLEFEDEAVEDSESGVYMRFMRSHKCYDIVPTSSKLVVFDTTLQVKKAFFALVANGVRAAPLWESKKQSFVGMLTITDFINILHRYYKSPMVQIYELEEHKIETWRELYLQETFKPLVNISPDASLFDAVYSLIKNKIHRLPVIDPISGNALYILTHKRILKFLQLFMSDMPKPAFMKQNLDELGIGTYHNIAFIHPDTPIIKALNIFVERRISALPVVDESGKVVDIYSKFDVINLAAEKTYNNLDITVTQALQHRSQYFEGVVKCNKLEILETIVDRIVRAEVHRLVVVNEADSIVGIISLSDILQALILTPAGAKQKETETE
- assay.remarks: AMPK in vitro activation assay (HTRF)
- Assay type: biochemical
- measurement.setup: potentiation of AMPK activity as percent over the basal signal (without compound)
Structures can show the parent of a compound that is named as a salt.
assay.readout: Emax (%)

- molecule: "COc1cc(C(O)=C2C(=O)Nc3cc(Cl)c(-c4ccc(C5CCNC5)cc4)cc32)on1 (stereo not drawn) [Compound 134, hydrochloride]"
  Emax (%): 394

(P) O=C1Nc2cc(Cl)c(-c3ccc(N4CCOCC4)cc3)cc2C1=C(O)c1cc(C2CCCCC2)no1
(Q) Cc1cc(C(O)=C2C(=O)Nc3cc(Cl)c(-c4ccc(N5CCOCC5)cc4)cc32)on1
Data request: Of P and Q , which one carries the higher reported Emax? Respond with the label that goes with your answer.
Data returned: Q
(Q: 283%, P: 155%)

(A) CN(C)c1ccc(-c2cc3c(cc2Cl)NC(=O)C3=C(O)c2ccc(C(=O)O)cc2)cc1
(B) Cc1nc(C)c(C(O)=C2C(=O)Nc3cc(Cl)c(-c4ccc(N5CCOCC5)cc4)cc32)s1
Data request: # argmax over Emax for candidates A and B Identify your selection by its label.
Data returned: B
(B: 257%, A: 120%)

(P) COc1cc(C(O)=C2C(=O)Nc3cc(Cl)c(-c4ccc(C5(CO)CC5)cc4)cc32)ccn1
(Q) COc1ccc(C(O)=C2C(=O)Nc3cc(Cl)c(-c4ccc(N5CCOCC5)cc4)cc32)c(F)c1F
Data request: Select the item with the higher value of Emax from the options P and Q listed. Give the label of your selection.
Data returned: Q
